B1: Retinoic acid receptor RXR-alpha, residues 132 to 208; numbered along this chain, P19793 (parent)
chain: KHICAICGDRSSGKHYGVYSCEGCKGFFKRTVRKDLTYTCRDNKDCLIDKRQRNRCQYCRYQKCLAMGMKREAVQEE

Variants of: B1
Experiment: abundance fitness (aPCA) (normalised: wild type 0, dead -1); higher = more abundant; growth selection in yeast, the domain comes from the species named
Settings: Homo sapiens
Decide by abundance fitness: equal to or exceeding -0.1 means satisfied, less means not satisfied.

Exam item: decide whether the reported abundance fitness for T39P is at least -0.1.
Marked response: satisfied
